B1: library; a variant is named by its letters at N, in order (parent)
chain: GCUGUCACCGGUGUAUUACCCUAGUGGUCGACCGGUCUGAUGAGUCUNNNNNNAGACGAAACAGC

# Variants of: B1
# protocol_notes: normalized RNA/DNA level with ligand (relative to sTRSVctl = 100) (log10 (% of sTRSVctl)); ligand: hypoxanthine (xanthine aptamer); higher = less ribozyme self-cleavage, higher mRNA level
# condition_set: ligand concentration (+) RNA-Seq: 5 mM, HEK293T, reporter: mCherry (pCS4076), ligand present: yes
Reported normalized RNA/DNA level with ligand (log10) values for the following variants.
The answer should be a number; do not append a unit.

Some entries whose results are on file:
Input line: I would be grateful if you could share the reported normalized RNA/DNA level with ligand (log10) for GCUGUCACCGGUGUAUUACCCUAGUGGUCGACCGGUCUGAUGAGUCUGUGACCAGACGAAACAGC [GUGACC] .
Output line: 1.93

Input line: I would be grateful if you could share the reported normalized RNA/DNA level with ligand (log10) for GCUGUCACCGGUGUAUUACCCUAGUGGUCGACCGGUCUGAUGAGUCUCUAUGAAGACGAAACAGC [CUAUGA] .
Output line: 1.95

Input line: I would be grateful if you could share the reported normalized RNA/DNA level with ligand (log10) for GCUGUCACCGGUGUAUUACCCUAGUGGUCGACCGGUCUGAUGAGUCUACAAAAAGACGAAACAGC [ACAAAA] .
Output line: 1.9

Input line: I would be grateful if you could share the reported normalized RNA/DNA level with ligand (log10) for GCUGUCACCGGUGUAUUACCCUAGUGGUCGACCGGUCUGAUGAGUCUUCUACGAGACGAAACAGC [UCUACG] .
Output line: 1.9

***
Input line: I would be grateful if you could share the reported normalized RNA/DNA level with ligand (log10) for GCUGUCACCGGUGUAUUACCCUAGUGGUCGACCGGUCUGAUGAGUCUAUUGGUAGACGAAACAGC [AUUGGU] .
Output line: 1.89

Input line: I would be grateful if you could share the reported normalized RNA/DNA level with ligand (log10) for GCUGUCACCGGUGUAUUACCCUAGUGGUCGACCGGUCUGAUGAGUCUUGUGUGAGACGAAACAGC [UGUGUG] .
Output line: 1.93

Input line: I would be grateful if you could share the reported normalized RNA/DNA level with ligand (log10) for GCUGUCACCGGUGUAUUACCCUAGUGGUCGACCGGUCUGAUGAGUCUAUUCUGAGACGAAACAGC [AUUCUG] .
Output line: 1.85

Input line: I would be grateful if you could share the reported normalized RNA/DNA level with ligand (log10) for GCUGUCACCGGUGUAUUACCCUAGUGGUCGACCGGUCUGAUGAGUCUGUAUUCAGACGAAACAGC [GUAUUC] .
Output line: 1.95

Input line: I would be grateful if you could share the reported normalized RNA/DNA level with ligand (log10) for GCUGUCACCGGUGUAUUACCCUAGUGGUCGACCGGUCUGAUGAGUCUGUAAUUAGACGAAACAGC [GUAAUU] .
Output line: 1.91

Input line: I would be grateful if you could share the reported normalized RNA/DNA level with ligand (log10) for GCUGUCACCGGUGUAUUACCCUAGUGGUCGACCGGUCUGAUGAGUCUACUACAAGACGAAACAGC [ACUACA] .
Output line: 1.92

Input line: I would be grateful if you could share the reported normalized RNA/DNA level with ligand (log10) for GCUGUCACCGGUGUAUUACCCUAGUGGUCGACCGGUCUGAUGAGUCUCCGUUAAGACGAAACAGC [CCGUUA] .
Output line: 1.94

Input line: I would be grateful if you could share the reported normalized RNA/DNA level with ligand (log10) for GCUGUCACCGGUGUAUUACCCUAGUGGUCGACCGGUCUGAUGAGUCUUAUAGAAGACGAAACAGC [UAUAGA] .
Output line: 1.89

Input line: I would be grateful if you could share the reported normalized RNA/DNA level with ligand (log10) for GCUGUCACCGGUGUAUUACCCUAGUGGUCGACCGGUCUGAUGAGUCUGUAUGGAGACGAAACAGC [GUAUGG] .
Output line: 1.78

Input line: I would be grateful if you could share the reported normalized RNA/DNA level with ligand (log10) for GCUGUCACCGGUGUAUUACCCUAGUGGUCGACCGGUCUGAUGAGUCUCUUAGUAGACGAAACAGC [CUUAGU] .
Output line: 1.94
